Biological target: Anti-CD28 Fab (SEQ ID NOs: 696, 697)
Sequence (VH, as listed by the source, chain 1 of 2): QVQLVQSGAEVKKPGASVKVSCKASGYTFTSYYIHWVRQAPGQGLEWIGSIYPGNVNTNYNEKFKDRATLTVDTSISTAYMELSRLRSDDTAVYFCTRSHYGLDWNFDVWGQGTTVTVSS
Sequence (VL, as listed by the source, chain 2 of 2): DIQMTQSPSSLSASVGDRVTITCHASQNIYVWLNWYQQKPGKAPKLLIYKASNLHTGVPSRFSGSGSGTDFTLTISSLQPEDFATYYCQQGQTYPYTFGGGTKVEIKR
Assay: phage ELISA; biotinylated anti-CD28 Fab on neutravidin plate, clonal phage supernatant, anti-M13 HRP detection;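 also: crude supernatants of single phage clones picked after panning were screened for binding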
Where no end group is shown, it is not given here.
Test readout: Anti-CD28 Fab signal (phage binding ELISA)

{"Binder": "YCSGHLPMYMAKCL (peptide, not shown: large carriers, cysteine pairing not given here; also: fused to phage pIII protein, pIII and linker sequence not given here, Tested as clonal phage supernatant) [Phage-1300]", "Recorded measurement": 0.62}
{"Binder": "YCAGHALEYMQKCM (peptide, not shown: large carriers, cysteine pairing not given here; also: fused to phage pIII protein, pIII and linker sequence not given here, Tested as clonal phage supernatant) [Phage-1303]", "Recorded measurement": 0.61}
{"Binder": "YCDGHIMPYLDKCL (peptide, not shown: large carriers, cysteine pairing not given here; also: fused to phage pIII protein, pIII and linker sequence not given here, Tested as clonal phage supernatant) [Phage-1309]", "Recorded measurement": 0.57}
{"Binder": "YCEGHLAVHMSKCL (peptide, not shown: large carriers, cysteine pairing not given here; also: fused to phage pIII protein, pIII and linker sequence not given here, Tested as clonal phage supernatant) [Phage-1301]", "Recorded measurement": 0.62}
{"Binder": "YCQGHSELYMSKCL (peptide, not shown: large carriers, cysteine pairing not given here; also: fused to phage pIII protein, pIII and linker sequence not given here, Tested as clonal phage supernatant) [Phage-1305]", "Recorded measurement": 0.6}
{"Binder": "YCDGHIEMYMSKCM (peptide, not shown: large carriers, cysteine pairing not given here; also: fused to phage pIII protein, pIII and linker sequence not given here, Tested as clonal phage supernatant) [Phage-1302]", "Recorded measurement": 0.61}
{"Binder": "YCEGHKKEYMLKCL (peptide, not shown: large carriers, cysteine pairing not given here; also: fused to phage pIII protein, pIII and linker sequence not given here, Tested as clonal phage supernatant) [Phage-1310]", "Recorded measurement": 0.56}
{"Binder": "YCDGHVTEYMAKCL (peptide, not shown: large carriers, cysteine pairing not given here; also: fused to phage pIII protein, pIII and linker sequence not given here, Tested as clonal phage supernatant) [Phage-1308]", "Recorded measurement": 0.58}
{"Binder": "YCDGHTPQFRAKCL (peptide, not shown: large carriers, cysteine pairing not given here; also: fused to phage pIII protein, pIII and linker sequence not given here, Tested as clonal phage supernatant) [Phage-1306]", "Recorded measurement": 0.59}
{"Binder": "YCEGHVELYRQKCL (peptide, not shown: large carriers, cysteine pairing not given here; also: fused to phage pIII protein, pIII and linker sequence not given here, Tested as clonal phage supernatant) [Phage-1311]", "Recorded measurement": 0.56}
{"Binder": "YCEGHLQEYMGKCL (peptide, not shown: large carriers, cysteine pairing not given here; also: fused to phage pIII protein, pIII and linker sequence not given here, Tested as clonal phage supernatant) [Phage-1307]", "Recorded measurement": 0.58}
{"Binder": "YCDGHLETYMQKCL (peptide, not shown: large carriers, cysteine pairing not given here; also: fused to phage pIII protein, pIII and linker sequence not given here, Tested as clonal phage supernatant) [Phage-1312]", "Recorded measurement": 0.53}
{"Binder": "YCEGHIGDYIAKCL (peptide, not shown: large carriers, cysteine pairing not given here; also: fused to phage pIII protein, pIII and linker sequence not given here, Tested as clonal phage supernatant) [Phage-1304]", "Recorded measurement": 0.61}
